Assay: NCI Yeast Anticancer Drug Screen. Data for the bub3 strain (AID 167)
Settings: S. cerevisiae bub3 mutant strain, at 50.0 µM, hits give high values
The panel holds about 79,000 compounds, 15% with a hit somewhere; the sample as a whole holds those more often.
Listing of entries alongside the reported growth inhibition.
Your answer is read as %, so omit the unit and give the number.

compound | experimentalReadout | assayResult
CC(=O)Nc1ccccc1Sc1ccccc1 | growth inhibition | 4.6

Can you look up the measured growth inhibition of CC1CCC2C(C)(C)CC3(C)CCC1C23O (configuration not stated) for me?
61.6

Can you look up the measured growth inhibition of O=C1C=C[C@@H](COC2OC(CO)C(O)C(O)C2O)O1 (some centres not stated) for me?
24.9

Can you look up the measured growth inhibition of CCCCCN(CCCCC)C(=O)C(C)Br (configuration not stated) for me?
44.9

---

Assay: NCI Yeast Anticancer Drug Screen. Data for the mec2-1 strain (AID 157)
Conditions: S. cerevisiae mec2-1 strain, at 50.0 µM, hits give high values
Experimental: Growth inhibition of yeast strains with defined genetic alterations is measured as a screen for potential anti-cancer activity. Selected strains with alterations in DNA damage repair or cell cycle control were exposed to compounds and growth inhibition was measured relative to vehicle treated controls. The strain used in this assay is mec2-1
This is part of a sample that, as a whole, favours compounds with a hit. Of some 79,000 tested, about 15% had one in any assay.
Listing of entries alongside the reported growth inhibition.
Your answer is read as %, so omit the unit and give the number.

compound | experimentalReadout | assayResult
NC(=O)c1cn2ccccc2c1[N+](=O)[O-] | growth inhibition | 27.6
CCCCCCCCCCCCCCCCCC(=O)OCC(CO)OC(=O)CCCCCCCCCCCCCCCCC (centres undefined) | growth inhibition | -9.65
Cc1ccc(N=NNc2ccccc2)cc1 | growth inhibition | -8.05

Can you look up the measured growth inhibition of "CCCCCCCCCCCCCCCCCC(=O)[O][Al][O]C(C)C" for me?
-35

Can you look up the measured growth inhibition of "NC(=O)c1c(N)nnc(-c2ccccc2)c1-c1ccccc1" for me?
-7.65

Can you look up the measured growth inhibition of "Oc1ccc(Oc2cc3c(cc2Oc2ccc(O)cc2)-c2nc-3nc3[nH]c(nc4nc(nc5[nH]c(n2)c2cc(Oc6ccc(O)cc6)c(Oc6ccc(O)cc6)cc52)-c2cc(Oc5ccc(O)cc5)c(Oc5ccc(O)cc5)cc2-4)c2cc(Oc4ccc(O)cc4)c(Oc4ccc(O)cc4)cc32)cc1" for me?
-56.7

Can you look up the measured growth inhibition of CCCCCCCCCCCCCC(=O)N(CCCCCCCCC)CC(O)C(O)C(OC1OC(CO)C(O)C(O)C1O)C(O)CO (centres undefined) for me?
-41.4

Can you look up the measured growth inhibition of CCc1ccc(OC/C=C(\C)CCC2OC2(C)CC)cc1 (centres undefined) for me?
4.5

Can you look up the measured growth inhibition of "C=C(C)CCCCCCCCC" for me?
-5.8

---

Test: NCI Yeast Anticancer Drug Screen. Data for the bub3 strain (AID 167)
Settings: S. cerevisiae bub3 mutant strain, at 50.0 µM
This is part of a sample that, as a whole, favours compounds with a hit. Of some 79,000 tested, about 15% had one in any assay. Active and inactive are the calls of the source. No stated cut-off is given here; in the data, active means growth inhibition above about 70%; inactive means the rest.
Would you mind answering with one of these outcomes? label 1 = active, label 0 = inactive

Example cases with answers are listed next.
compound | classAssignment
CC(C)(C)c1ccc(O)c(C(c2cc(C(C)(C)C)ccc2O)c2cc(C(C)(C)C)ccc2O)c1 | label 1
c1ccc(SCc2ccc3c(c2)OCO3)cc1 | label 0
C/C(=C1\SC(=S)N(C2OC(CO)C(O)C(O)C2O)C1=O)c1ccco1 (stereo unspecified) | label 0

Please share the test call associated with CC(C)(Cl)C1CCC(CC(Cl)(Cl)Cl)CC1 (stereo unspecified) .
label 0

Please share the test call associated with "O=C(CC(=O)n1nc(-c2ccccc2)c(N=Nc2ccc([N+](=O)[O-])cc2)c1-c1ccccc1)Nc1ccc(Cl)cc1" .
label 0

Please share the test call associated with "O=C1c2ccc([N+](=O)[O-])cc2C(=O)N1CC(F)(F)F" .
label 0

Please share the test call associated with "COc1ccc(OC)c(/C=C/c2cnnc3ccccc23)c1" .
label 0

---

Assay: NCI Yeast Anticancer Drug Screen. Data for the cln2 rad14 strain (AID 165);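 note: 0% = growth equal to vehicle treated cultures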
Conditions: S. cerevisiae cln2 rad14 strain, at 50.0 µM, hits give high values
About 79,000 compounds went through this panel and 15% of them were active in at least one assay; those are over-represented in the sample as a whole.
Rule: true (1) for growth inhibition not less than 10%, false (0) for anything less.

Example cases with answers are listed next.
molecule | classAssignment
CNC(=O)C1NCCc2cc(OC)c(OC)cc21 (centres undefined) | true (1)
COc1ccc(C(Cc2ccccc2Cl)N(CCO)CCO)cc1 (centres undefined) | false (0)

Now for another entry.
Threshold query (growth inhibition >= 10%) on "O=C1NCC2(CCN(Cc3ccccc3)CC2)N1c1ccccc1"
false (0)

---

Experiment: NCI Yeast Anticancer Drug Screen. Data for the cln2 rad14 strain (AID 165);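 note: 0% = growth equal to vehicle treated cultures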
Settings: S. cerevisiae cln2 rad14 strain, at 50.0 µM, hits give high values
Compounds without any hit were thinned out: in the full panel of roughly 79,000, 15% have a hit.
experimentalReadout: growth inhibition (%)
Your answer is read as %, so omit the unit and give the number.

Previously resolved entries follow.
compound | readingUnit | growth inhibition
CN(C)CC(C)(C)C(=O)c1ccc(F)cc1 | % | 3.55
COC(=O)CC(c1ccccc1)N1CCOCC1 (stereo unspecified) | % | -20.4
CCC1=C[C@H]2CN(CCc3c([nH]c4ccccc34)[C@@](C(=O)OC)(c3cc4c(cc3OC)N(C)[C@H]3[C@@](O)(C(=O)NC)[C@H](OC(C)=O)[C@]5(CC)C=CCN6CC[C@]43[C@@H]65)C2)C1 | % | -2.05
NC(=O)C(N)Cc1ccc(OCc2ccccc2)c(OCc2ccccc2)c1 (stereo unspecified) | % | -12.8

Can you look up the measured growth inhibition of CCC1C(OC)=CC(CC)(CO)C=C1OC (stereo unspecified) for me?
14.2

Can you look up the measured growth inhibition of C=C[C@@H]1C(CO)=CCC2[C@H]1CCC1C(C)(C)C(=O)CC[C@]21C (stereo partly specified) for me?
2.7

Can you look up the measured growth inhibition of CCOC(=O)C1C(c2ccc(Br)cc2)N(Cc2ccccc2)C(c2ccc(Br)cc2)C(C(=O)OC)S1(=O)=O (stereo unspecified) for me?
-25.1

Can you look up the measured growth inhibition of "Cc1nc(Cc2ccc(O)c(O)c2)c(C)o1" for me?
-17.2

Can you look up the measured growth inhibition of "O=c1ccc2cc3ccoc3c(OCCOCCOCCOCCOc3c4occc4cc4ccc(=O)oc34)c2o1" for me?
-17.2

Can you look up the measured growth inhibition of "O=C(O)c1cc(N2C(=O)c3ccc4c5ccc6c7c(ccc(c8ccc(c3c48)C2=O)c75)C(=O)N(c2ccc(O)c(C(=O)O)c2)C6=O)ccc1O" for me?
34

Can you look up the measured growth inhibition of "COc1ccc(/C=C/C(=O)c2sc(N)nc2C)cc1" for me?
24.6

Can you look up the measured growth inhibition of "CCOC(=O)NN(C(=O)OCC)C(C(=O)C1CCCCC1)N(NC(=O)OCC)C(=O)OCC" for me?
11.2

Can you look up the measured growth inhibition of CS(=O)(=O)OCC1C2CCC(CC2)C1COS(C)(=O)=O (stereo unspecified) for me?
-15.8

Can you look up the measured growth inhibition of "O=C1CC(=O)N(c2ccccc2)N1" for me?
19.9

Can you look up the measured growth inhibition of "C#CC(C)(C)Oc1cc(O)c2c(=O)c3ccccc3n(C)c2c1" for me?
5.3

Can you look up the measured growth inhibition of "CC(=O)N1CN=C2Sc3ccccc3N2C1" for me?
-16

Can you look up the measured growth inhibition of "Cc1ccc([N+](=O)[O-])c2c(NCCC[N+](C)(C)[O-])ccnc12" for me?
14.2

Can you look up the measured growth inhibition of "NC(=S)CNC(=O)c1ccccc1" for me?
-9.55

---

Experiment: NCI Yeast Anticancer Drug Screen. Data for the mlh1 rad18 strain (AID 175)
Details: S. cerevisiae mlh1 rad18 strain growth inhibition; at 50.0 µM; hits give high values
The panel holds about 79,000 compounds, 15% with a hit somewhere; the sample as a whole holds those more often. Calls of active or inactive are those of the source. Rule as the data show it: active = growth inhibition above about 70%; inactive = the rest.
experimentalReadout: growth inhibition

Previously resolved entries follow.
compound | assayResult
NC(CSSCC(N)=NCC12CC3CC(CC(C3)C1)C2)=NCC12CC3CC(CC(C3)C1)C2 | 99.2% (active)
CC(=O)C1CCC2C3CC=C4CC(O)C=CC4(C)C3CCC12C (stereo unspecified) | 17.9% (inactive)
CN1C(c2ccco2)NC(=O)C12CCN(Cc1ccccc1)CC2 (stereo unspecified) | 16.1% (inactive)
CC1(C)OCN(c2ccc(Cl)cc2)Cn2c1nc1ccccc12 | -9.25% (inactive)
CCOC(=O)/C=C/c1ccccn1 | -25.6% (inactive)

# ---- query compound ----
Can you look up the measured growth inhibition of "CC(C)/C=C(\C#N)C(=O)O" for me?
1.3% (inactive)
